Values were extracted from patent US20060052294A1.

- targetDesc: T1, human C5a receptor (human, UniProt P21730 1-350)
- T1 sequence (looked up): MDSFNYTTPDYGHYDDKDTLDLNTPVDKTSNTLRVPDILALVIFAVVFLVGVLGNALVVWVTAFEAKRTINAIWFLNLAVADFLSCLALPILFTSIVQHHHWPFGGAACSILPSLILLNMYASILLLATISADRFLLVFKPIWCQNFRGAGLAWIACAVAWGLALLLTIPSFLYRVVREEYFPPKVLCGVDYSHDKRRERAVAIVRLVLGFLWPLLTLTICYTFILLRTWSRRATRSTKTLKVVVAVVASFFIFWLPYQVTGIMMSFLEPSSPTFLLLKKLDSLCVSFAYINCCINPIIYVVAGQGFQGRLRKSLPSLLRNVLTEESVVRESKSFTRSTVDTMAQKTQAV
- experimentalDetails: cell-based or functional assay
The entries below come with measured ED50 [nM] (N-acetyl-beta-D-glucosaminidase release from C5aR-RBL cells) values attached.

# example entries with known answers
Output measured ED50 [nM] (N-acetyl-beta-D-glucosaminidase release from C5aR-RBL cells) for this item: C5a-(1-66,Cys27Ala)-A8B-Cys73 (ligand, also called Ab8-Cys73; 67-FKRSLLC-73) TLQKKIEEIAAKYKHSVVKKCCYDGAAVNNDETCEQRAARISLGPRCIKAFTECCVVASQLRANISFKRSLLC
> 4000 nM

State its ED50 [nM] (N-acetyl-beta-D-glucosaminidase release from C5aR-RBL cells) for this binder: C5a-(1-66,Cys27Ala)-A8B-Del.71-73 (ligand, also called C5a-(1-66, Cys27Ala)-FKRS-70; 67-FKRS-70) TLQKKIEEIAAKYKHSVVKKCCYDGAAVNNDETCEQRAARISLGPRCIKAFTECCVVASQLRANISFKRS
> 4000 nM

# context switch: different binder, same ED50 [nM] (N-acetyl-beta-D-glucosaminidase release from C5aR-RBL cells)
Item C5a-(1-66,Cys27Arg)-A8B (ligand, also called A8B-Arg27; A8B Arg 27) TLQKKIEEIAAKYKHSVVKKCCYDGARVNNDETCEQRAARISLGPRCIKAFTECCVVASQLRANISFKRSLLR : provide ED50 [nM] (N-acetyl-beta-D-glucosaminidase release from C5aR-RBL cells)
> 4000 nM
